Data origin, for the record: patent US20260364081A1

target: norepinephrine receptor (Homo sapiens, UniProt P23975); details: read-out: norepinephrine reuptake inhibition IC50; HEK-293T cells stably expressing the norepinephrine receptor; 30 min drug incubation, 37 °C; 30 min kinetic fluorescence reading
Sequence (P23975 whole entry): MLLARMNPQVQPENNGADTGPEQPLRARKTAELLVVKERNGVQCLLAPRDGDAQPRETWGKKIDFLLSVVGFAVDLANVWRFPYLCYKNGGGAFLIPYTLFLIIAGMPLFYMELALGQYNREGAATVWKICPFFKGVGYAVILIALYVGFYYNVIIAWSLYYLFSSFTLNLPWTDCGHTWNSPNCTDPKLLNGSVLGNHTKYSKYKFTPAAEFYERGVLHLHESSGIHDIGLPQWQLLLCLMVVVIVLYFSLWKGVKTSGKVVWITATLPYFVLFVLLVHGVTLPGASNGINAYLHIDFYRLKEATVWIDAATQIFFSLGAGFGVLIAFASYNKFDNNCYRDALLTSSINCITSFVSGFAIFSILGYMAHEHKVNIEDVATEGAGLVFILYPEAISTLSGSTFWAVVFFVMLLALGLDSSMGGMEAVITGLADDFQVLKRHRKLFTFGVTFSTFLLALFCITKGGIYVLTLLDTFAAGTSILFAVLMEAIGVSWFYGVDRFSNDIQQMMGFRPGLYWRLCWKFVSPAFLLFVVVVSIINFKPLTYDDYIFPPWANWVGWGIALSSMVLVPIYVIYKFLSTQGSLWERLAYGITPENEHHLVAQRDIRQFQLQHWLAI
pIC50: −log10 of the molar value. Counter-ions that a name gives are not always drawn.
reported.endpoint: pIC50

Examples with their reported pIC50 follow.
CCOc1ccccc1OC[C@@H]1CNCCO1 [Example 7, (S)-viloxazine sulfate]
4.53
CCOc1ccccc1OC[C@@H]1CNCCO1 [Example 12, (S)-viloxazine oxalate]
4.46
CCOc1ccccc1OC[C@@H]1CNCCO1 [Example 11, (S)-viloxazine trifluoroacetate]
4.47
CCOc1ccccc1OC[C@@H]1CNCCO1 [Example 10, (S)-viloxazine acetate]
4.61
CCOc1ccccc1OC[C@@H]1CNCCO1 [Example 13, (S)-viloxazine fumarate]
4.44
CCOc1ccccc1OC[C@@H]1CNCCO1 [Example 9, (S)-viloxazine nitrate]
4.38
CCOc1ccccc1OCC1CNCCO1 (racemic) [Comparative Example 1, (R,S)-viloxazine hydrochloride]
4.20
CCOc1ccccc1OC[C@@H]1CNCCO1 [Example 14, (S)-viloxazine maleate]
4.54

[A] CCOc1ccccc1OC[C@@H]1CNCCO1 [Example 15, (S)-viloxazine citrate]
[B] CCOc1ccccc1OC[C@H]1CNCCO1 [Comparative Example 2, (R)-viloxazine hydrochloride, reference compound]
QUERY: Parameter metric = pIC50. Return the lower-valued option from A and B . Choose, then provide that item's label.
RESULT: B

* * *

test: Thermal stability test (content by HPLC, visual discoloration); assay type: physicochemical; conditions: solid, 75% rh, HPLC, 8 weeks at 40±2 °C and 75±5% RH, opaque glass vials; read-out: Content after 8 weeks
Counter-ions that a name gives are not always drawn.
reported.endpoint: remaining at 1344 h (%)

CCOc1ccccc1OC[C@@H]1CNCCO1 [Example 6, (S)-viloxazine hydrochloride]
99.2
CCOc1ccccc1OCC1CNCCO1 (racemic) [Comparative Example 1, (R,S)-viloxazine hydrochloride]
98.7
CCOc1ccccc1OC[C@H]1CNCCO1 [Comparative Example 2, (R)-viloxazine hydrochloride, reference compound]
98.1

* * *

Molecular target: norepinephrine receptor (Homo sapiens)
Settings: read-out: norepinephrine reuptake inhibition IC50; HEK-293T cells stably expressing the norepinephrine receptor; 30 min drug incubation, 37 °C; 30 min kinetic fluorescence reading; hydrochloride
Protocol: The norepinephrine reuptake ability in a cell line expressing the norepinephrine receptor was confirmed using a kit (Neurotransmitter Transporter Uptake Assay Kit, Molecular Devices) composed of a fluorescent material that mimics amine neurotransmitters and a masking dye. […] Thereafter, fluorescence was measured for a total of 30 minutes in Kinetic reading mode at Ex/Em=440 nm/520 nm using a fluorescence plate reader (SpectraMax®). […]
Structures can show the parent of a compound that is named as a salt.
reported.endpoint: pIC50
Bear in mind: pIC50 is minus log10 of a mol/L concentration; give just that figure.

QUERY: Return value of pIC50 for input CCOc1ccccc1OC[C@@H]1CNCCO1 [Example 6, (S)-viloxazine hydrochloride] , no commentary.
RESULT: 4.65

* * *

test: Thermal stability test (content by HPLC, visual discoloration); format: physicochemical; settings: HPLC, 8 weeks at 40±2 °C and 75±5% RH, opaque glass vials; 80640 min
Structures can show the parent of a compound that is named as a salt.
reported.endpoint: Content after 8 weeks (%)

CCOc1ccccc1OC[C@@H]1CNCCO1 [Example 11, (S)-viloxazine trifluoroacetate]
98.5
CCOc1ccccc1OC[C@@H]1CNCCO1 [Example 15, (S)-viloxazine citrate]
98.6
CCOc1ccccc1OC[C@@H]1CNCCO1 [Example 7, (S)-viloxazine sulfate]
98.6
CCOc1ccccc1OC[C@@H]1CNCCO1 [Example 9, (S)-viloxazine nitrate]
97.7
CCOc1ccccc1OC[C@@H]1CNCCO1 [Example 13, (S)-viloxazine fumarate]
98.5
CCOc1ccccc1OC[C@@H]1CNCCO1 [Example 10, (S)-viloxazine acetate]
99.3
CCOc1ccccc1OC[C@@H]1CNCCO1 [Example 14, (S)-viloxazine maleate]
98.5
CCOc1ccccc1OC[C@@H]1CNCCO1 [Example 12, (S)-viloxazine oxalate]
98.6
